Values were extracted from patent US20100248359A1.

- system: T1, full-length human GPC3 (human, UniProt P51654 25-554)
- T1 construct: On CHO (DXB11) or SK-HEP-1 (SK-03) transfectants; also used here for the GPC3 on the hepatoma lines HepG2 and HuH-7; also called human glypican 3
- T1 sequence (P51654 25-554 limits assumed): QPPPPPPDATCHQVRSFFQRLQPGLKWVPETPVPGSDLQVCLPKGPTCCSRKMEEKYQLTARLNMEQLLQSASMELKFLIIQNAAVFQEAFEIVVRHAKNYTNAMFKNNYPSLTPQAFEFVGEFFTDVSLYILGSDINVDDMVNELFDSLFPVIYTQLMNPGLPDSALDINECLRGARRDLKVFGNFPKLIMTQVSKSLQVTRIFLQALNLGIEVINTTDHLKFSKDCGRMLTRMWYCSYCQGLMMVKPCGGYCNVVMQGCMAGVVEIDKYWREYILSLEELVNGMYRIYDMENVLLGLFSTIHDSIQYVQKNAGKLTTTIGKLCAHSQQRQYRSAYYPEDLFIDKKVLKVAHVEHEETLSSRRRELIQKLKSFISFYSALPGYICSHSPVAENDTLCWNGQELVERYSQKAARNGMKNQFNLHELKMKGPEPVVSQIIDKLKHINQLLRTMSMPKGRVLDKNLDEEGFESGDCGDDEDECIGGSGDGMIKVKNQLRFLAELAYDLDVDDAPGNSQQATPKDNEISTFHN
- testMethodNotes: BIACORE; the form of GPC3 used is not given
Property: Kd; scope: individual binders
Report as a plain number; the unit nM is understood.

binder | assayResult
M1E7 (antibody, human IgG1, kappa, V domains shown, Mouse monoclonal from hybridoma; also called M1E07) VH: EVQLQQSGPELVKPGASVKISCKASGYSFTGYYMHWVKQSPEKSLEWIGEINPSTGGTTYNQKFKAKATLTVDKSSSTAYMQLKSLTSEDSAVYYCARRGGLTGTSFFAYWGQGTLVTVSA VL: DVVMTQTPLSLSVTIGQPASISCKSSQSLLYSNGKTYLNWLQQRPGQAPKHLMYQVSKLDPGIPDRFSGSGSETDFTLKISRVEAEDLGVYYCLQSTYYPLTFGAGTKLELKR | 2.8

Returns the measured Kd for the input binder. Input: M5B9 (antibody, V domains shown, Mouse monoclonal from hybridoma) VH: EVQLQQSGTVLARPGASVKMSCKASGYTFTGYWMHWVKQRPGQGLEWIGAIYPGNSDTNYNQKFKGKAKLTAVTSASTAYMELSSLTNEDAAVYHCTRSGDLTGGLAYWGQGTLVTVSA VL: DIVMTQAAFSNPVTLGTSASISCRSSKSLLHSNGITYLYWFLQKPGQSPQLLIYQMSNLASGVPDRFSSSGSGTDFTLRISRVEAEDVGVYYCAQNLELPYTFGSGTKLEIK 23.5
